Molecular target: THR beta (Homo sapiens, UniProt P10828)
Construct: expressed in transfected cells; host or cells: HEK293T (ATCC CRL-3216)
Sequence (P10828 whole entry): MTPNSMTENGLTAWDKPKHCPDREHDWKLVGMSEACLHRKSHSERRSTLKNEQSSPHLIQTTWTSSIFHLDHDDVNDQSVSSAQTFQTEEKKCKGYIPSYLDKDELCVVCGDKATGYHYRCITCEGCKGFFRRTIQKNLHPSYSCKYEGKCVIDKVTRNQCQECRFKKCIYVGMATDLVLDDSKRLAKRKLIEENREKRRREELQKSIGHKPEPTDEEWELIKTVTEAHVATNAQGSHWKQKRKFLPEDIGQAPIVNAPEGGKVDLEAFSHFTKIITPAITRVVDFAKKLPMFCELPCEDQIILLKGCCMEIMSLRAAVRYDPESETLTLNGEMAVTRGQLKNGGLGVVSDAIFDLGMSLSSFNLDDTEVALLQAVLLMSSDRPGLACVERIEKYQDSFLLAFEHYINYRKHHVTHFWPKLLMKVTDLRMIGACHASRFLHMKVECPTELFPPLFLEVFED
Sequence (P19793 whole entry partner): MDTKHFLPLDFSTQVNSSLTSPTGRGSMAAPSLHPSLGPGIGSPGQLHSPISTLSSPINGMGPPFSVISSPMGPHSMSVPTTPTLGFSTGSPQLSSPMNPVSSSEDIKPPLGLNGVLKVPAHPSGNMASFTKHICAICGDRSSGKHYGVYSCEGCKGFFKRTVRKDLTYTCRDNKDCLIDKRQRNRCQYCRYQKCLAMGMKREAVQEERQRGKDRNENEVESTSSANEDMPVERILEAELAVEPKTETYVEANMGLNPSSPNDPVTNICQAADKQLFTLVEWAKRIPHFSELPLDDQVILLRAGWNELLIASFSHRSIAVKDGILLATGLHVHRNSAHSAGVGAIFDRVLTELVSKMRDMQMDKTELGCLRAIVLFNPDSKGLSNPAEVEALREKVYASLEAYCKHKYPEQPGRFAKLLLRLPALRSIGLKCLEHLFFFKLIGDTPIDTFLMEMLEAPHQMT
Assay: HEK293T THR beta/RXR luciferase reporter assay (Assay 2)
Assay type: cell-based
Details: HEK-293T; Table 5; Assay 2; THRβ; read-out: Activity category Assay 2 THRβ (Emax)
measured.endpoint: Emax

Challenge: What value of Emax has been reported for the following molecule? Nc1nn(-c2cc(Cl)c(Oc3cc(C45CCC(C4)C5)c(=O)[nH]n3)c(Cl)c2)c(=O)[nH]c1=O [Compound 101]
Response given: 50 to 75%

Challenge: Okay, and CC(C)c1cc(Oc2c(Cl)cc(-n3nc(N)c(=O)[nH]c3=O)c3c2CC3)n[nH]c1=O [Compound 79] ?
Response given: > 75%

Challenge: Okay, and Nc1nn(-c2cc(Cl)c(Oc3cc(-c4ccc5c(c4)CCCC5)c(=O)[nH]n3)c(Cl)c2)c(=O)[nH]c1=O [Compound 72] ?
Response given: 50 to 75%

Challenge: Okay, and Nc1nn(-c2cc(Cl)c(Oc3cc(C45CC(C4)C5)c(=O)[nH]n3)c(Cl)c2)c(=O)[nH]c1=O [Compound 95] ?
Response given: > 75%

Source: patent US12180192B2
